test: Mitotoxicity / Mitotox safety margin (therapeutic window); format: cell-based; conditions: mitotox or cytotox
Highest safe dose (μM) (mitotox or cytotox) less than 2 µM is 1.0; Highest safe dose (μM) (mitotox or cytotox) greater than or equal to 2 µM is 0.0.

Fc1ccc2c(c1)OC[C@H](N1C[C@@H]3COC[C@H]3C1)[C@H]2Nc1ncnc2[nH]c(C3CC3)cc12 (single isomer, unassigned) [EP-0040874]; 0.0
FC(F)(F)c1cc2c(N[C@@H]3c4ccccc4CC[C@H]3N3CCOCC3)ncnc2[nH]1 (racemic); 0.0

Decide: Highest safe dose (μM) (mitotox or cytotox) of FC(F)(F)c1cc2c(NC3c4ccccc4OCC3N3C[C@H]4COC[C@@H]4C3)ncnc2[nH]1 (stereo partly shown) strictly below 2 µM?
0.0

Decide: Highest safe dose (μM) (mitotox or cytotox) of COC[C@@H]1CCN(C2COc3ccccc3C2Nc2ncnc3[nH]c(C4CC4)cc23)C1 (single isomer, unassigned) strictly below 2 µM?
1.0

Decide: Highest safe dose (μM) (mitotox or cytotox) of "C[C@@H]1CN([C@@H]2COc3ccccc3[C@H]2Nc2ncnc3[nH]c(C4CC4)cc23)CCO1" strictly below 2 µM?
1.0

Decide: Highest safe dose (μM) (mitotox or cytotox) of C[C@@H]1CN([C@H]2CCc3ccccc3[C@@H]2Nc2ncnc3[nH]c(C(F)(F)F)cc23)C[C@H](C)O1 (single isomer, unassigned) strictly below 2 µM?
1.0

Cited source: patent US20240018146A1
